System: Rcu mt-EF-Tu1 (Romanomermis culicivorax)
Assay: DRaCALA
Conditions: 3'-aminoacylated with Phe (flexizyme); DRaCALA of EF-Tu:GTP:Phe-tRNA ternary complexes, 2 ul spotted on nitrocellulose, n>=3; binding buffer, pH and temperature not in the material
For each of the sequences below, state its pKd.
By convention, pKd is the negative base-10 log of a molar concentration.

Task: Return reported pKd. Input sequence: GCGGAUUUAGCUCAGUUGGGAGAGCGCCAGACUGAAGAUCUGGAGGUCCUGUGUUCGAUCCACAGAAUUCGCACCA [Phe-tRNAPhe (canonical)]
Output: 7.65

Task: Return reported pKd. Input sequence: AGUCAAAUAGCUUAACCUUAAAGCACAAAUCUUUUAAAUUUGAAGAUGUAUCCACUUUGACUACCA [Phe-mt-tRNALys (T-armless)]
Output: 8.28
